Reference source for all entries: patent US20140193400A1

molecular target: T1, Human TNFa N-his trimers (His-tagged TNF, produced at ESBATech) (human, UniProt P01375 77-233); assay: SPR (BIAcore), His-tagged human TNF captured on NTA chip, scFv as analyte; units taken from paragraph 184
T1 construct: Captured as trimers on a Ni-NTA sensor chip by the N-terminal His tags in the Biacore assay of the general methods; also called human TNFα; human TNF alpha; not shown: N-terminal His tag
T1 sequence (P01375 77-233 limits assumed): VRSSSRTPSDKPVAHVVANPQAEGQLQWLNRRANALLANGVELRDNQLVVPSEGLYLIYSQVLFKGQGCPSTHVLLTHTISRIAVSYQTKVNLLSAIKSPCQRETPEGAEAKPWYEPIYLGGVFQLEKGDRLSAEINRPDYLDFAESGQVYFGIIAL
Recorded kon, one value per entry.
PROPERTY_MEASURED: kon (M⁻¹ s⁻¹)

# BINDER, PROPERTY_MEASURED, RECORDED_RESULT
measured = [
    ("EP43_max (scFv, scFv NH2-VL-(GGGGS)4-VH-COOH; also called 676) scFv: EIVMTQSPSTLSASVGDRVIIKCQASQSISDWLAWYQQKPGKAPKLLIYGASRLASGFPSRFSGSGSGAEFTLTISGLEPADFATYYCQQGWSDSYVDNLFGQGTKLTVLGGGGGSGGGGSGGGGSGGGGSEVQLVESGGGLVQPGGSLRLSCTVSGFSLSSGAMSWVRQAPGKGLEWVGVIISSGATYYASWAKGRFTISKDTSKNTVYLQMNSLRAEDTAVYYCARGGPDDSNSMGTFDPWGQGTLVTVSS", "kon", 228000),
    ("EP43_minmax (scFv, Min graft VL with max graft VH; also called 958) scFv: EIVMTQSPSTLSASVGDRVIITCQASQSISDWLAWYQQKPGKAPKLLIYGASRLASGVPSRFSGSGSGAEFTLTISSLQPDDFATYYCQQGWSDSYVDNLFGQGTKLTVLGGGGGSGGGGSGGGGSGGGGSEVQLVESGGGLVQPGGSLRLSCTVSGFSLSSGAMSWVRQAPGKGLEWVGVIISSGATYYASWAKGRFTISKDTSKNTVYLQMNSLRAEDTAVYYCARGGPDDSNSMGTFDPWGQGTLVTVSS", "kon", 228000),
    ("EP43_maxmin (scFv, also called 959) scFv: EIVMTQSPSTLSASVGDRVIIKCQASQSISDWLAWYQQKPGKAPKLLIYGASRLASGFPSRFSGSGSGAEFTLTISGLEPADFATYYCQQGWSDSYVDNLFGQGTKLTVLGGGGGSGGGGSGGGGSGGGGSEVQLVESGGGLVQPGGSLRLSCAASGFSLSSGAMSWVRQAPGKGLEWVSVIISSGATYYASWAKGRFTISRDNSKNTLYLQMNSLRAEDTAVYYCAKGGPDDSNSMGTFDPWGQGTLVTVSS", "kon", 146000),
    ("EP43_maxDHP (scFv) scFv: EIVMTQSPSTLSASVGDRVIIKCQASQSISDWLAWYQQKPGKAPKLLIYGASRLASGFPSRFSGSGSGAEFTLTISGLEPADFATYYCQQGWSDSYVDNLFGQGTKLTVLGGGGGSGGGGSGGGGSGGGGSEVQLVESGGGSVQPGGSLRLSCTVSGFSLSSGAMSWVRQAPGKGLEWVGVIISSGATYYASWAKGRFTISKDTSKNTVYLQMNSLRAEDTATYYCARGGPDDSNSMGTFDPWGQGTSVTVSS", "kon", 235000),
]
